Data origin, for the record: ChEMBL document CHEMBL4052585

// fraction unbound lookup, one value per entry
- Experiment Summary: Protein binding in human plasma
- Assay type: ADME, cell-free
- Condition Info: read-out: PPB (converted)
Please reply with the number alone, leaving off any unit.

> print(dat)
                              sample.smiles  quantitative.readout
1  Cc1cc([C@](C)(O)C#Cc2cc3c(cc2F)C2CC(C2)n2cc(C(N)=O)nc2-3)no1                  0.09

Recorded fraction unbound (compound CNC(=O)c1c(C(N)=O)nc2n1CCOc1ccc(C#C[C@@](C)(O)c3cc(C)on3)cc1-2 ): 0.06

* * *

- Target Of Assay: Mitogen-activated protein kinase kinase kinase 14 (Homo sapiens)
- Experiment Summary: Binding affinity to NIK (unknown origin) by SPR method
Readout Type: pKd
Please keep in mind that pKd is minus log10 of the molar concentration; only the number is needed.

Recorded pKd (compound NC(=O)c1cccn1Cc1ccccc1Cl ): 4.16

* * *

- Experiment Summary: Volume of distribution in beagle dog
- Assay type: ADME, Canis lupus familiaris
- Condition Info: in vivo
Readout Type: Vd
Please state the number and follow it with the unit.

Recorded Vd (compound CNC(=O)c1c(C(N)=O)nc2n1CCOc1ccc(C#C[C@@](C)(O)c3cc(C)on3)cc1-2 ): 1.1 L/kg

* * *

- Experiment Summary: Volume of distribution in cynomolgus monkey
- Type: ADME, Macaca fascicularis
- Condition Info: in vivo
Readout Type: Vd (L/kg)
Please respond with the number in L/kg and leave the unit unwritten.

> print(dat)
                              sample.smiles  reading.unit  quantitative.readout
1  CNC(=O)c1c(C(N)=O)nc2n1CCOc1ccc(C#C[C@@](C)(O)c3cc(C)on3)cc1-2          L/kg                   0.9

Consider now this further compound.
Recorded Vd (compound Cc1cc([C@](C)(O)C#Cc2cc3c(cc2F)C2CC(C2)n2cc(C(N)=O)nc2-3)no1 ): 1.9

* * *

// Papp at 100 µM lookup, one value per entry
- Experiment Summary: Apparent permeability across MDCK cells at 100 uM
- Format: ADME, cell-based, Canis lupus familiaris
- Condition Info: dog
Please respond with the number in ×10⁻⁶ cm/s and leave the unit unwritten.

> print(dat)
                              sample.smiles  reading.unit  quantitative.readout
1  Cc1cc([C@](C)(O)C#Cc2cc3c(cc2F)C2CC(C2)n2cc(C(N)=O)nc2-3)no1    ×10⁻⁶ cm/s                  10.1

Consider now this further molecule.
Recorded Papp at 100 µM (molecule CNC(=O)c1c(C(N)=O)nc2n1CCOc1ccc(C#C[C@@](C)(O)c3cc(C)on3)cc1-2 ): 7.5

* * *

- Experiment Summary: physchem
- Condition Info: buffer, pH 7.4
Readout Type: logD
Please reply with the number alone, leaving off any unit.

Guide cases for logD, answers given:
> print(dat)
                                    molecule  quantitative.readout
 1  CN1CCCC(O)(C#Cc2cc3c(cc2F)OCCn2cc(C(N)=O)nc2-3)C1=O (racemic)                   1.5
 2  CC(C)(O)C#Cc1cc2c(cc1F)OCCn1c-2nc(C(N)=O)c1-c1cn[nH]c1                   1.8
 3  CN(C)C(=O)c1c(C(N)=O)nc2n1CCOc1cc(F)c(C#CC(C)(C)O)cc1-2                   1.4
 4  CC(O)(C#Cc1cc2c(cc1F)OCCn1cc(C(N)=O)nc1-2)c1nccs1 (racemic)                   2.4
 5  Cc1c(C(N)=O)nc2n1CCOc1cc(F)c(C#CC(C)(C)O)cc1-2                   2.2
 6  CC(C)(O)C#Cc1cc2c(cc1F)OCCn1c-2nc(C(N)=O)c1Cc1ccccc1F                   3.4
 7  Cc1cc([C@](C)(O)C#Cc2cc3c(cc2F)C2CC(C2)n2cc(C(N)=O)nc2-3)no1                   3.3
 8  CC(C)(O)C#Cc1cc2c(cc1F)OCCn1cc(C(N)=O)nc1-2                   1.7
 9  NC(=O)c1cn2c(n1)-c1cc(C#CC3(O)CCC3)c(F)cc1OCC2                   3.4
10  CN1CC[C@@](O)(C#Cc2cc3c(cc2F)OCCn2cc(C(N)=O)nc2-3)C1=O                  0.74

Recorded logD (molecule NC(=O)c1ccc2c(n1)-c1sccc1CCO2 ): 2.5

Recorded logD (molecule CC(C)(O)C#Cc1cc2c(cc1F)OCCn1c-2nc(C(N)=O)c1C1CC1 ): 1.9

Recorded logD (molecule CC(C)(O)C#Cc1ccc2c(c1)-c1nc(C(N)=O)cn1CCO2 ): 1.4

Recorded logD (molecule CNC(=O)c1c(C(N)=O)nc2n1CCOc1cc(F)c(C#CC(C)(C)O)cc1-2 ): 2.5

* * *

- Experiment Summary: Plasma clearance in Sprague-Dawley rat
- Type: ADME
// clearance lookup, one value per entry
Please respond with the number in mL/min/kg and leave the unit unwritten.

> print(dat)
                              sample.smiles  readout.type  quantitative.readout
1  Cc1cc([C@](C)(O)C#Cc2cc3c(cc2F)C2CC(C2)n2cc(C(N)=O)nc2-3)no1     clearance                    24

Recorded clearance (molecule CNC(=O)c1c(C(N)=O)nc2n1CCOc1ccc(C#C[C@@](C)(O)c3cc(C)on3)cc1-2 ): 7

* * *

- Target Of Assay: Mitogen-activated protein kinase kinase kinase 14 (Homo sapiens, UniProt Q99558)
- Sequence (Q99558 whole entry): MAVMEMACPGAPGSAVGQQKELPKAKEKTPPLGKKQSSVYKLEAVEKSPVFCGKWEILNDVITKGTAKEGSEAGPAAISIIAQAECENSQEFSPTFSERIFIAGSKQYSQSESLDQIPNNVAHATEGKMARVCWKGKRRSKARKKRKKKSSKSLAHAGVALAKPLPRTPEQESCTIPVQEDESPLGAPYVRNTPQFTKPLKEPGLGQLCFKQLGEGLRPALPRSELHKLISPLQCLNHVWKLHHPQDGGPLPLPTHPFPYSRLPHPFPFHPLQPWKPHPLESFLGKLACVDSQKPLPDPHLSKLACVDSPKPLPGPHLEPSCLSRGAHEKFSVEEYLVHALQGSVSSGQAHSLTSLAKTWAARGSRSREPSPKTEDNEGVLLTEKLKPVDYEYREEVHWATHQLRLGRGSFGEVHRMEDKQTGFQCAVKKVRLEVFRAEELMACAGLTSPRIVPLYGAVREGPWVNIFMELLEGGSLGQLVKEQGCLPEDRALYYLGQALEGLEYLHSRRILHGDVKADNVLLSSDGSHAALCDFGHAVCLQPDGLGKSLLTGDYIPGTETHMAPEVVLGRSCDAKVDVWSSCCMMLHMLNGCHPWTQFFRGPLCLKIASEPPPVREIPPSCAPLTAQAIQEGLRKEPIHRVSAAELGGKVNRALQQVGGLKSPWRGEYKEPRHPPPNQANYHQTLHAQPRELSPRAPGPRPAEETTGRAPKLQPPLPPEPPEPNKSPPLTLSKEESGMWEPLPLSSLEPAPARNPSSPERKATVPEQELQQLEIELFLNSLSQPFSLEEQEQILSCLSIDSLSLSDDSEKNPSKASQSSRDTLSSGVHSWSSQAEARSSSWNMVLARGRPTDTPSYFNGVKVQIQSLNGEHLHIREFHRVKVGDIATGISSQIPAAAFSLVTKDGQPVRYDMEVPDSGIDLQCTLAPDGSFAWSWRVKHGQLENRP
- Experiment Summary: Inhibition of NIK (unknown origin) after 1 to 2 hrs by ADP-FP assay
pKi: −log10 of the molar value.
Entries get a class label from measured pKi. See ranges: low end: < 7; middle: ≥ 7 and < 8; high end: ≥ 8

Known results for compounds:
> print(dat)
                                   compound  label.class
1  CC(C)(O)C#Cc1ccc2c(c1)-c1nc(C(N)=O)sc1C(F)(F)CO2       middle
2  CN(C)C(=O)C(C)(O)C#Cc1cc2c(cc1F)OCCn1cc(C(N)=O)nc1-2 (stereo unspecified)      low end
3  CC(O)(C#Cc1cc2c(cc1F)OCCn1cc(C(N)=O)nc1-2)c1nccs1 (racemic)     high end
4  CC(C)(O)C#Cc1ccc2c(c1)-c1nc(C(N)=O)cn1C1CC2C1       middle
5             NC(=O)c1ccc2c(n1)-c1sccc1CCO2      low end

Which bin, given its pKi, does Cc1cc([C@](C)(O)C#Cc2cc3c(cc2F)C2CC(C2)n2cc(C(N)=O)nc2-3)no1 occupy?
high end

Which bin, given its pKi, does Cc1c(C(N)=O)nc2n1CCOc1cc(F)c(C#CC(C)(C)O)cc1-2 occupy?
middle

Which bin, given its pKi, does CN1CCCC(O)(C#Cc2cc3c(cc2F)OCCn2cc(C(N)=O)nc2-3)C1=O (racemic) occupy?
high end

Which bin, given its pKi, does NC(=O)c1cn2c(n1)-c1cc(C#CC3(O)COC3)c(F)cc1OCC2 occupy?
low end

Which bin, given its pKi, does CC(C)(O)C#Cc1ccc2c(c1)-c1nc(C(N)=O)sc1CCO2 occupy?
middle

Which bin, given its pKi, does CC(C)(O)C#Cc1ccc2c(c1)-c1nc(C(N)=O)cn1CCO2 occupy?
low end

Which bin, given its pKi, does CC(C)(O)C#Cc1cc2c(cc1F)C1CC(C1)n1cc(C(N)=O)nc1-2 occupy?
high end

Which bin, given its pKi, does CNC(=O)c1c(C(N)=O)nc2n1CCOc1ccc(C#C[C@@](C)(O)c3cc(C)on3)cc1-2 occupy?
high end

* * *

// logD lookup, one value per entry
- Experiment Summary: physchem
- Condition Info: buffer, pH 7.4
Please reply with the number alone, leaving off any unit.

> print(dat)
                                   compound  readout.type  quantitative.readout
1  CC(C)(O)C#Cc1cc2c(cc1F)OCCn1c-2nc(C(N)=O)c1C#N          logD                   1.6
2  NC(=O)c1cn2c(n1)-c1cc(C#CC3(O)COC3)c(F)cc1OCC2          logD                   1.2
3  CC(C)(O)C#Cc1ccc2c(c1)-c1nc(C(N)=O)sc1CCO2          logD                   2.4

Recorded logD (compound CN1CC[C@](O)(C#Cc2cc3c(cc2F)OCCn2cc(C(N)=O)nc2-3)C1=O ): 0.94

Recorded logD (compound CNC(=O)c1c(C(N)=O)nc2n1CCOc1ccc(C#C[C@@](C)(O)c3cc(C)on3)cc1-2 ): 3

Recorded logD (compound CN(C)C(=O)C(C)(O)C#Cc1cc2c(cc1F)OCCn1cc(C(N)=O)nc1-2 (stereo not drawn) ): 1.4

Recorded logD (compound Cc1cc([C@](C)(O)C#Cc2cc3c(cc2F)OCCn2cc(C(N)=O)nc2-3)no1 ): 1.1

Recorded logD (compound CC(O)(C#Cc1cc2c(cc1F)OCCn1cc(C(N)=O)nc1-2)c1cccnn1 (racemic) ): 1.4
